Assay: Cytotoxicity against human PC3 cells after 72 hrs by MTT assay
Type: functional, cell-based
Details: PC-3, 72 h
# pIC50 per entry
By convention, pIC50 is the negative base-10 log of a molar concentration.

smiles.input	pIC50
Cc1cc(Cl)n2nc3nc4ccccc4cc3c2n1	6.05
Cc1cc(N(C)C)n2nc3nc4ccccc4cc3c2n1	4.05
CCN(CC)CCCNc1cc(C)nc2c3cc4ccccc4nc3nn12	4.11
Cc1cc(NCCN(C)C)n2nc3nc4ccccc4cc3c2n1	4.10
Cc1cc(N2CCOCC2)n2nc3nc4ccccc4cc3c2n1	4.11

Which pIC50 value belongs to `Cc1cc(=O)n2nc3nc4ccccc4cc3c2[nH]1` ?
4.33

Would you kindly share the measured pIC50 for `Cc1cc(NCCCN(C)C)n2nc3nc4ccccc4cc3c2n1` ?
4.22

Give the measured pIC50 of `CCN(CC)CCNc1cc(C)nc2c3cc4ccccc4nc3nn12` .
4.20

###

Tested on: HepG2
Test: Cytotoxicity against human HepG2 cells after 72 hrs by MTT assay
Type: functional, cell-based
Details: HepG2, 72 h
reported.metric: IC50

smiles.input	result
CCN(CC)CCNc1cc(C)nc2c3cc4ccccc4nc3nn12	67.4 µM
Cc1cc(=O)n2nc3nc4ccccc4cc3c2[nH]1	89.5 µM
Cc1cc(N(C)C)n2nc3nc4ccccc4cc3c2n1	67.9 µM
CCN(CC)CCCNc1cc(C)nc2c3cc4ccccc4nc3nn12	89.9 µM

Please look up its IC50: `Cc1cc(Cl)n2nc3nc4ccccc4cc3c2n1`
9.7 µM

Dear colleague, I am looking for the recorded IC50 of the following compound: `Cc1cc(NCCCN(C)C)n2nc3nc4ccccc4cc3c2n1`
73.2 µM

State the recorded IC50 for this entry: `Cc1cc(NCCN(C)C)n2nc3nc4ccccc4cc3c2n1`
> 100 µM

Item `Cc1cc(N2CCOCC2)n2nc3nc4ccccc4cc3c2n1` has what recorded IC50?
> 100 µM

###

Assay: Cytotoxicity against human S1 cells after 72 hrs by MTT assay
Format: functional, cell-based
Details: S1, 72 h
Items are presented alongside their recorded IC50.
Write the quantity with the unit trailing the number.

For the molecule `Cc1cc(N2CCOCC2)n2nc3nc4ccccc4cc3c2n1` , what IC50 is on record?
67.4 µM

Fill in the blank: the reported IC50 of `Cc1cc(Cl)n2nc3nc4ccccc4cc3c2n1` is ____.
0.8 µM

May I ask what IC50 has been recorded for `CCN(CC)CCCNc1cc(C)nc2c3cc4ccccc4nc3nn12` ?
53.7 µM

Which IC50 is listed for `Cc1cc(N(C)C)n2nc3nc4ccccc4cc3c2n1` ?
58.3 µM

Look up IC50 for this molecule: `CCN(CC)CCNc1cc(C)nc2c3cc4ccccc4nc3nn12`
44.6 µM

Sample `Cc1cc(NCCCN(C)C)n2nc3nc4ccccc4cc3c2n1` — what was its IC50?
83.4 µM

Item `Cc1cc(=O)n2nc3nc4ccccc4cc3c2[nH]1` has what recorded IC50?
63.6 µM

# get_value(readout='IC50', item= `Cc1cc(NCCN(C)C)n2nc3nc4ccccc4cc3c2n1` )
69.8 µM
